Test system: HEK293 cells
Assay: HEK293 cell survival assay (resazurin)
Format: cell-based
Conditions: Homo sapiens; HEK293, 24 h incubation
pEC50: −log10 of the molar value.
observation.type: pEC50

>>> df
                            chemical_string  test_value
0       O=c1[nH]c(CCl)nc2scc(-c3ccccc3F)c12        5.30
1     O=c1[nH]c(CCl)nc2scc(-c3ccc(F)cc3)c12        5.41
2     O=c1[nH]c(CCl)nc2scc(-c3cccc(F)c3)c12        5.19
3  O=c1[nH]c(CCl)nc2scc(-c3ccc(C(F)(F)F)cc3)c12        5.41
4        O=c1[nH]c(CCl)nc2scc(-c3ccccc3)c12        5.31

----------
Test system: Tpx
Construct: with residue G1 and end with N144; GAMG (TEV-cleavage scar that replaces Met1); Trx-His6 (thioredoxin fusion with His6 tag) (N, cleaved yes); made in house; host or cells: E. coli BL21-Gold(DE3)
Test: SEC-MALS of Tpx/inhibitor complexes
Format: binding, Trypanosoma brucei
Details: 100 µM analyte, value ± measurement error
Mark criterion met for reported SEC-MALS Mw of Tpx/inhibitor complex of 20 kDa or greater; mark criterion not met for anything smaller.

>>> df
                            chemical_string        label_value
0       O=c1[nH]c(CCl)nc2scc(-c3ccccc3F)c12  criterion not met
1  O=c1[nH]c(CCl)nc2scc(-c3ccc(C(F)(F)F)cc3)c12  criterion not met
2     O=c1[nH]c(CCl)nc2scc(-c3cccc(F)c3)c12      criterion met
3     O=c1[nH]c(CCl)nc2scc(-c3ccc(F)cc3)c12      criterion met

----------
Test system: T. brucei brucei 449 Lister 427 parasites
Test: Trypanosome cell survival assay (ATPlite luminescence)
Assay type: cell-based, Trypanosoma brucei brucei
Details: HEK293 vs T. brucei brucei 449, 24 h
Recorded Selectivity index (24 h), EC50 HEK293 cells divided by EC50 T. brucei values for a group of compounds are listed next.
observation.type: Selectivity index (24 h), EC50 HEK293 cells divided by EC50 T. brucei

                                   compound  test_value
0  O=c1[nH]c(CCl)nc2scc(-c3ccccc3F)c12 [ortho-CFT]         5.0
1  O=c1[nH]c(CCl)nc2scc(-c3ccc(C(F)(F)F)cc3)c12 [CtFT]         1.8
2  O=c1[nH]c(CCl)nc2scc(-c3cccc(F)c3)c12 [meta-CFT]         5.0
3  O=c1[nH]c(CCl)nc2scc(-c3ccccc3)c12 [CPT]         8.2
4  O=c1[nH]c(CCl)nc2scc(-c3ccc(F)cc3)c12 [para-CFT]         3.0

----------
Documented pEC50 across a set of compounds
System: T. brucei brucei 449 Lister 427 parasites
Assay: Trypanosome cell survival assay (ATPlite luminescence)
Type: cell-based, Trypanosoma brucei brucei
Conditions: Trypanosoma brucei; bloodstream form T. brucei brucei 449, 24 h incubation; read-out: EC50 (24 h)
pEC50: −log10 of the molar value.
observation.type: pEC50

In [3]: df
Out[3]:
                            chemical_string  observation_type  test_value
0  O=c1[nH]c(CCl)nc2scc(-c3ccc(C(F)(F)F)cc3)c12             pEC50        5.66
1        O=c1[nH]c(CCl)nc2scc(-c3ccccc3)c12             pEC50        6.22
2     O=c1[nH]c(CCl)nc2scc(-c3cccc(F)c3)c12             pEC50        5.89
3       O=c1[nH]c(CCl)nc2scc(-c3ccccc3F)c12             pEC50        6.00
4     O=c1[nH]c(CCl)nc2scc(-c3ccc(F)cc3)c12             pEC50        5.89
